test-summary: self-splicing fitness, log relative to wild type (ln ratio); higher = more splicing; Tetrahymena group I intron in knt gene, E. coli kanamycin selection, DiMSum; sequences stand for … in CUCUCU…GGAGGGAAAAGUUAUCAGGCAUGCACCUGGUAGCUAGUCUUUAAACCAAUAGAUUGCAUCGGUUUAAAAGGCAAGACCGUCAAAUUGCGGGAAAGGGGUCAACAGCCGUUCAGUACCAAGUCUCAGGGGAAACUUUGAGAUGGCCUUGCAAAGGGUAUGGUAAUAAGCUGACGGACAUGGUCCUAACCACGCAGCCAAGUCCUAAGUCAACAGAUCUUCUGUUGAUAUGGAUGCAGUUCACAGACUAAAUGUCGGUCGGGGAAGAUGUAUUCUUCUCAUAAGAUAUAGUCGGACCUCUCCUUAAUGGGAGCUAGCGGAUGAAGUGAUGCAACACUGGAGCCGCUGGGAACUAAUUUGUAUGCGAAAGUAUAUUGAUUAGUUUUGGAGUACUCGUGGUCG;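 further: selection with 25 µg/mL kanamycin versus none on LB agar overnight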
assay-conditions: 30 °C
We begin with a simple list: items and their reported self-splicing fitness (ln).
Keep the answer to the number alone.

{"residue-sequence": "CUGAAGCAAUAUUACGAUGU", "self-splicing fitness (ln)": -3.12}
{"residue-sequence": "AGGAAGCAAUAUUACGACUG", "self-splicing fitness (ln)": -0.619}
{"residue-sequence": "CGAUAGCAAUAUUACGGACA", "self-splicing fitness (ln)": -2.4}
{"residue-sequence": "ACUGAGCAAUAUUACGACGU", "self-splicing fitness (ln)": -1.53}
{"residue-sequence": "UUUCAGCAAUAUUACGAUGA", "self-splicing fitness (ln)": -0.807}
{"residue-sequence": "UCCCAGCAAUAUUACGAAGC", "self-splicing fitness (ln)": -3.98}

Asked: Output self-splicing fitness (ln) of `GUAUAGCAAUAUUACGCAGA`
Given back: -2.74

Asked: Output self-splicing fitness (ln) of `GGCCAGCAAUAUUACGCAGC`
Given back: -3.08

Asked: Output self-splicing fitness (ln) of `AUGCAGCAAUAUUACGAUCG`
Given back: -1.8

Asked: Output self-splicing fitness (ln) of `UCACAGCAAUAUUACGGCGA`
Given back: 0.0998

Asked: Output self-splicing fitness (ln) of `GCAGAGCAAUAUUACGCGGU`
Given back: -4.68

Asked: Output self-splicing fitness (ln) of `CUAGAGCAAUAUUACGCGAC`
Given back: -0.657

====

We begin with a simple list: items and their reported self-splicing fitness (ln).
test-summary: self-splicing fitness, log relative to wild type (ln ratio); higher = more splicing; Tetrahymena group I intron in knt gene, E. coli kanamycin selection, DiMSum; sequences stand for … in CUCUCU…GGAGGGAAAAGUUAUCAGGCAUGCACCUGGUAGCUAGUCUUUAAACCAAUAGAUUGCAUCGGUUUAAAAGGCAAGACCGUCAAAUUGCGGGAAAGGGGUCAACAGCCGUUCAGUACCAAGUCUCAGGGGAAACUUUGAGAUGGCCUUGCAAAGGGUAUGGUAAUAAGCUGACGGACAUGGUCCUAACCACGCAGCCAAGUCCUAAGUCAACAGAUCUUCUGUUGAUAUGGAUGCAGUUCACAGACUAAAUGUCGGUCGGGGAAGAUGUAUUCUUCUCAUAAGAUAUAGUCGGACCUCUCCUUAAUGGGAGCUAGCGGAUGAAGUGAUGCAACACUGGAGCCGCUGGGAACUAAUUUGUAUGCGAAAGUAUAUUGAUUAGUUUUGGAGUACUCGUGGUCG
assay-conditions: 30 °C
Keep the answer to the number alone.

Asked: Output self-splicing fitness (ln) of `CCGAAGCAAUAUUACGAGCU`
Given back: -3.83
